test: in vitro; conditions: human, Caco-2, pH 7.4
recorded_metric: Papp A→B at 2 h, 5 μM

CC(=O)N1CCn2nc(-c3ccc(F)cc3)c(-c3ccnc4[nH]ccc34)c2C1 : 5.28 ×10⁻⁶ cm/s
CNCc1cn2nccc(-c3cn(C)nc3-c3ccc(F)cc3)c2n1 : 12.7 ×10⁻⁶ cm/s
Cn1cc(-c2ccnn3cc(C(C)(C)O)nc23)c(-c2ccc(F)cc2)n1 : 25.3 ×10⁻⁶ cm/s
CNC(=O)c1cn2nccc(-c3cn(C)nc3-c3ccc(F)cc3)c2n1 : 22.4 ×10⁻⁶ cm/s
Cn1cc(-c2ccnn3cc(CN)nc23)c(-c2ccc(F)cc2)n1 : 13 ×10⁻⁶ cm/s
Cn1cc(-c2ccnn3cc(C(N)=O)nc23)c(-c2ccc(F)cc2)n1 : 24.8 ×10⁻⁶ cm/s

---

experiment: Intrinsic clearance in liver microsomes (human); type: in vitro ADME; settings: Human liver microsomes 0.5 mg/mL, 2 μM compound, 37° C.; read-out: in vitro CLint (μL/min/mg protein)
Catalogue of compounds with associated log10 of microsomal CLint at 2 μM
recorded_metric: log10 of microsomal CLint at 2 μM (log10 of the value in µL/min/mg)

Cn1cc(-c2ccnn3cc(C(C)(C)O)nc23)c(-c2ccc(F)cc2)n1 : 0.51
Cn1cc(-c2ccnn3cc(CN)nc23)c(-c2ccc(F)cc2)n1 : -0.03
CNCc1cn2nccc(-c3cn(C)nc3-c3ccc(F)cc3)c2n1 : 0.42
CC(=O)N1CCn2nc(-c3ccc(F)cc3)c(-c3ccnc4[nH]ccc34)c2C1 : 0.87
CNC(=O)c1cn2nccc(-c3cn(C)nc3-c3ccc(F)cc3)c2n1 : 1.10

---

Listing: Papp B→A at 2 h, 5 μM of selected compounds
experiment: Caco-2 drug transport assay; conditions: human, Caco-2, pH 7.4
recorded_metric: Papp B→A at 2 h, 5 μM (×10⁻⁶ cm/s)

Cn1cc(-c2ccnn3cc(C(C)(C)O)nc23)c(-c2ccc(F)cc2)n1 : 19.4
Cn1cc(-c2ccnn3cc(C(N)=O)nc23)c(-c2ccc(F)cc2)n1 : 25.2
CC(=O)N1CCn2nc(-c3ccc(F)cc3)c(-c3ccnc4[nH]ccc34)c2C1 : 18.4
CNCc1cn2nccc(-c3cn(C)nc3-c3ccc(F)cc3)c2n1 : 32.1
CNC(=O)c1cn2nccc(-c3cn(C)nc3-c3ccc(F)cc3)c2n1 : 20.8
Cn1cc(-c2ccnn3cc(CN)nc23)c(-c2ccc(F)cc2)n1 : 31.5

---

assay: Intrinsic clearance in liver microsomes (mouse); format: in vitro ADME; conditions: Mouse liver microsomes 0.5 mg/mL, 2 μM compound, 37° C.; read-out: in vitro CLint (μL/min/mg protein)
recorded_metric: log10(microsomal CLint at 2 μM) (log10 of the value in µL/min/mg)

Cn1cc(-c2ccnn3cc(C(C)(C)O)nc23)c(-c2ccc(F)cc2)n1 [Compound I-17] : 1.28
CNCc1cn2nccc(-c3cn(C)nc3-c3ccc(F)cc3)c2n1 [Compound I-22] : 1.28
CNC(=O)c1cn2nccc(-c3cn(C)nc3-c3ccc(F)cc3)c2n1 [Compound I-16] : 1.82
CC(=O)N1CCn2nc(-c3ccc(F)cc3)c(-c3ccnc4[nH]ccc34)c2C1 [Compound I-24] : 1.39
Cn1cc(-c2ccnn3cc(CN)nc23)c(-c2ccc(F)cc2)n1 [Compound I-14] : 0.77
Cn1cc(-c2ccnn3cc(C(N)=O)nc23)c(-c2ccc(F)cc2)n1 [Compound I-15] : 1.59
